Assay: Inhibition of Plasmodium falciparum recombinant FabI at 20 ug/mL by spectrophotometric analysis
Activity calls are given as the source filed them. No cut-off for these calls is given here.
metricName: Activity

COC(=O)[C@H]1O[C@@H](O[C@H]2CC[C@@]3(C)[C@@H](CC[C@H]4[C@H]5C(=O)C(O)=C([C@H](C)CC(=O)CC(C)C)[C@@]5(C)CC[C@@H]43)C2)[C@H](O)[C@@H](O)[C@@H]1O [METHYL ESTER PANDAROSIDE D]
inactive
CC[C@@H](C(=O)C[C@@H](C)C1=C(O)C(=O)[C@@H]2[C@@H]3CC[C@H]4C[C@@H](O[C@@H]5O[C@H](C(=O)OC)[C@@H](O[C@H]6O[C@H](C)[C@@H](O)[C@H](O)[C@@H]6O)[C@H](O)[C@H]5O)CC[C@]4(C)[C@H]3CC[C@]12C)C(C)C [METHYL ESTER PANDAROSIDE I]
inactive
CC[C@@H](C(=O)C[C@@H](C)C1=C(O)C(=O)[C@@H]2[C@@H]3CC[C@H]4C[C@@H](O[C@@H]5O[C@H](C(=O)OC)[C@@H](O)[C@H](O)[C@H]5O[C@@H]5O[C@H](CO)[C@@H](O)[C@H](O)[C@H]5O)CC[C@]4(C)[C@H]3CC[C@]12C)C(C)C [METHYL ESTER PANDAROSIDE A]
inactive

The values you see were collected from ChEMBL document CHEMBL1212832.
